# System: TRPC4 beta (transient receptor potential cation channel C4), mouse
# assay.protocol: activators of mouse TRPC4 channel, confirmation, cell-based, Fluo4 calcium, HEK293 TRPC4beta/mu-opioid, duplicates, 10 µM (AID 2426)
# conditions.used: Fluo4 calcium fluorescence, at 10 µM
Calls of active or inactive are those of the source.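 Rule for the calls: active = fluorescence ratio normalized to control raised more than 50% in primary screen plus both repeat runs; inactive = the rest.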
Write down one outcome, taken from YES = active, NO = inactive

Worked set:
CCCCN(CC)CCNC(=O)c1cc2c(C)nc3ccccc3c2o1; YES
CC(C)(C)c1ccc(C(=O)NC(=S)NNC(=O)COc2ccccc2)cc1; NO
CCN1/C(=C\c2ccc3ccccc3[n+]2CC)Sc2cc(C)ccc21; YES
COC(=O)c1ccccc1N=Nc1c(N)[nH][nH]c1=O; YES
Cc1ccc(C(=O)NNC(=S)NC(=O)c2ccc(Cl)cc2)cc1; NO

// query Recorded call for CN(C)C(CNC(=O)c1ccc(C(F)(F)F)cc1)c1ccco1 (stereo unspecified) ?
// result YES

// query For CN(C)C(CNC(=O)c1ccc2ccccc2n1)c1ccccc1 (stereo unspecified) , what call appears in the results of this test?
// result YES

// query Hi team, can someone confirm the assay call for Cc1ccccc1C(=O)NNC(=S)NC(=O)c1ccccc1 ?
// result YES

// query I would be grateful if you could indicate the recorded call for COc1ccc(-c2cc(C#N)nc(N3CCNCC3)n2)cc1 .
// result YES

// query How did this test come out for COc1ccc(C(CNC(=O)c2cccc3cccnc23)N(C)C)cc1 (stereo unspecified) ?
// result YES

// query What did the test return for Cc1ccc(C(=O)NNC(=S)NC(=O)c2ccccc2)cc1 ?
// result YES

----------
# target.of.assay: Potassium voltage-gated channel subfamily KQT member 2 (Rattus norvegicus) (UniProt O88943)
# Sequence (O88943 whole entry, looked up): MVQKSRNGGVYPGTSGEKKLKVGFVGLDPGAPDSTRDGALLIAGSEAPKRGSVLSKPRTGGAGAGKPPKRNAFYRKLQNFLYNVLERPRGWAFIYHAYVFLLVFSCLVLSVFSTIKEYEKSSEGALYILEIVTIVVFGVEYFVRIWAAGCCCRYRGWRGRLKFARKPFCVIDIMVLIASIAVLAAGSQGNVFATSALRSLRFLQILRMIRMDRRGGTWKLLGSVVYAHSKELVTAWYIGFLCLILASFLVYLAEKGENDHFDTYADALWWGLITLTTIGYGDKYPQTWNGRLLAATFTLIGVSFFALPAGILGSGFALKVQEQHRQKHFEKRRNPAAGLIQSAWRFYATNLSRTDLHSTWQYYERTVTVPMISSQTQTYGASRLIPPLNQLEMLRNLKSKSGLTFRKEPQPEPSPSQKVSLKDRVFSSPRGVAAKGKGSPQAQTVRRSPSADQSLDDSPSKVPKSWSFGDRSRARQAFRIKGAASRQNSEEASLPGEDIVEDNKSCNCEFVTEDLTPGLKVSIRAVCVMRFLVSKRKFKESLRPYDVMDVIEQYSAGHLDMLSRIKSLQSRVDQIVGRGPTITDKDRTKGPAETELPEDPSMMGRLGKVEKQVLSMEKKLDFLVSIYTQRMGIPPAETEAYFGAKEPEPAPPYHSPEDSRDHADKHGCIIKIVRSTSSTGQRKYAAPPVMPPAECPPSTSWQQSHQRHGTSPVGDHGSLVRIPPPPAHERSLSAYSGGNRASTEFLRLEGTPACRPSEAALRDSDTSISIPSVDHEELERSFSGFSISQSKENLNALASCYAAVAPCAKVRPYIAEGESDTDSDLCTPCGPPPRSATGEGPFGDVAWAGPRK
# assay.protocol: rat KCNQ2 channel potentiation, selectivity assay for KCNQ1 potentiator project, KCNQ2-CHO-K1 cells (AID 493009);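 note: assay conditions were tuned for KCNQ1 rather than KCNQ2 modulators; signal is max minus min fluorescence divided by baseline after thallium stimulus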
# conditions.used: FluxOR thallium flux fluorescence, at 10 µM; active compounds read high, scaled: buffer 0, activator control 100
The source made the active and inactive calls.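 The calls were made as follows: active = mean duplicate potentiation above the buffer control mean plus 5 SD of buffer wells; inactive = the rest.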
recorded.endpoint: potentiation

O=C(Nc1ccc2[nH]c(=S)sc2c1)c1ccccc1; 154% (active)
CC1=CC(=O)C=C(C)C1=NOS(=O)(=O)c1ccccc1; inactive
COc1ccc(C(=O)NNC(=O)C(=O)NC2CCCCC2)cc1; 168% (active)
COc1cc(Br)cc(C=Nc2cccc(C(F)(F)F)c2)c1O; inactive

Consider CCC(CC)c1nnc(NC(=O)c2cc(C(=O)OC)cc([N+](=O)[O-])c2)s1 . Its measured potentiation is 419% (active)

The compound listed as CC(C)C(NC(=O)Nc1ccccc1)C(=O)Nc1cccc(S(=O)(=O)N(C)C)c1 (stereo unspecified) shows potentiation equal to 232% (active)

The recorded potentiation for CCOC(=O)c1ccccc1NC(=O)CSc1nc2ccccc2n1CC(=O)N1CCCC1 is inactive

So, COc1ccc2c(c1)cc(C)c1nnc(SCC(=O)N3CCN(C(=O)c4ccco4)CC3)n12 ? Its potentiation was inactive

Just so you know, measured potentiation for C=CCn1c(=S)[nH]c2nc3c(cc2c1=O)CCCC3 came out at 152% (active)

Entry under test: O=C(CSc1ccc2ccccc2n1)Nc1ccc(N2CCOCC2)cc1 . Its potentiation was inactive

For record CC(=O)NC1=C(NC2CCS(=O)(=O)C2)C(=O)c2ccccc2C1=O (stereo unspecified) the listed potentiation is inactive

Numbers sourced from PubChem BioAssay.
